Listed here are molecules together with their documented %Inh.
Test system: EPHA7
stated_conditions: concentration: 1 μM, replicates: in singlicate; n = 1;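 also: KINOMEscan kinase panel screen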
readout_kind: %Inh (%)

molecule	readout_kind	observed_value
O=C1Cc2cc(Nc3nc(NCc4cccc(S(=O)(=O)C(F)(F)F)c4)ncc3C(F)(F)F)ccc2N1	%Inh	0
COc1ccc(S(=O)(=O)NC2CCN(c3cc(C)nc(Nc4cccc(C#N)c4)n3)CC2)cc1.O=C(O)C(F)(F)F	%Inh	0
CCc1nc(-c2cccc(C)c2)c(-c2ccnc(NCc3ccccc3)c2)s1	%Inh	4
CCn1cnc2c(N)ncnc21	%Inh	3
O=C(Nc1cccc(-c2nn3ncccc3c2-c2ccnc(Nc3cccc(C(F)(F)F)c3)n2)c1)c1c(F)cccc1F	%Inh	54
COc1cc(Nc2nccc(N3CCC(NC(=O)c4cccc(NC(C)=O)c4)C3)n2)cc(OC)c1OC (centres unmarked)	%Inh	11
CSc1ccc(-c2cc3ncnc(SCC(=O)O)c3s2)cc1	%Inh	0
CCCCCc1nc2c(N)ncnc2n1CCCCC	%Inh	0
COC(=O)Nc1nc2cc(Oc3ccc(NC(=O)Nc4cc(F)ccc4F)cc3)ccc2[nH]1.Cl	%Inh	16
N#Cc1c(N2CCOCC2)sc(-c2ccn[nH]2)c1-c1ccc(Cl)cc1	%Inh	5
Cl.Nc1ncnc2occ(-c3ccc(NC(=O)Nc4cc(C(F)(F)F)ccc4F)cc3)c12	%Inh	98.9
Cc1nnc(-c2ccc3ncc(-c4ccc(S(C)=O)cc4)n3c2)o1 (centres unmarked)	%Inh	1
O=C(NCCNc1ccnc(Nc2ccc(F)cc2)n1)Nc1ccccc1F	%Inh	2
Cl.Oc1cccc(Nc2ccnc3cc(-c4ccncc4)ccc23)c1	%Inh	0
Cl.Cl.Cl.Fc1ccc(-c2ncn(C3CCNCC3)c2-c2ccnc(Nc3ccccc3)n2)cc1	%Inh	0
COc1cc2c(cc1OCCN1CCN(C)CC1)ncc1c3ccc(C#N)cc3[nH]c21	%Inh	0
O=c1cc(N2CCOCC2)nc2n(Cc3cccc(C(F)(F)F)c3)ccn12	%Inh	0
CN(C(=O)c1ccc(-c2cc(-c3c[nH]nc3-c3ccccn3)ccn2)cc1)C1CCOCC1	%Inh	0
Cc1nnc(-c2ccc3occ(-c4ccc(C(C)O)cc4)c3c2)o1 (centres unmarked)	%Inh	3
Cc1cccc(-c2nc(Nc3ccc4ncsc4c3)c3ccccc3n2)n1	%Inh	0
c1ccc(-c2n[nH]cc2-c2ccnc3ccccc23)nc1	%Inh	6
COc1cc2ncn(-c3cc(OCc4sccc4Cl)c(C(N)=O)s3)c2cc1OC	%Inh	0
O=c1cc(N2CCOCC2)nc2n(Cc3cccc4ccccc34)ccn12	%Inh	5
COc1ccc(Nc2nccc(N3CCC(NC(=O)Nc4cc(C)ccc4C)C3)n2)cc1 (centres unmarked)	%Inh	5
COc1ccc(Nc2nccc(N3CCC(NC(=O)Nc4cccc(C(C)=O)c4)C3)n2)cc1 (centres unmarked)	%Inh	0
O=C(c1ccc(-c2cc(-c3c[nH]nc3-c3ccccn3)ccn2)cc1)N1CCOCC1	%Inh	0
O=C(NCCCN1CCOCC1)c1cccc(Nc2nccc(Nc3ccc(Oc4ccccc4)cc3)n2)c1	%Inh	0
NS(=O)(=O)c1cccc(-c2ccc3ncc(N4CCOCC4)nc3c2)c1	%Inh	3
Cc1cccc(-c2nc(-c3ccc(S(C)(=O)=O)cc3)sc2-c2ccncc2)c1	%Inh	19
CC(C)Oc1ccc2c(-c3ccnc(Nc4ccc(N5CCN(C)CC5)cc4)n3)cnn2n1	%Inh	7
COc1ccc(CNC(=O)NC2CCN(c3ccnc(Nc4ccc(OC)cc4)n3)C2)cc1 (centres unmarked)	%Inh	0
N#Cc1ccc(-c2cc(-c3c[nH]nc3-c3ccccn3)ccn2)cc1	%Inh	44

---

Test system: FYN
stated_conditions: concentration: 1 μM, replicates: in singlicate; n = 1
Assign met to entries whose %Inh meets or exceeds 20%; assign not met to the rest.

record_smiles	discrete_label
Cc1cccc(-c2nc(-c3ccc(S(C)(=O)=O)cc3)sc2-c2ccncc2)c1	not met
CSc1ccc(-c2cc3ncnc(SCC(=O)O)c3s2)cc1	not met
COc1ccc(COc2cc(-n3cnc4ccccc43)sc2C(N)=O)cc1	not met
O=C(NCCNc1ccnc(Nc2ccc(F)cc2)n1)Nc1ccccc1F	met
Cn1cc(-c2ccc3c(c2)CCN3C(=O)Cc2ccccc2Cl)c2c(N)ncnc21	met
Fc1ccc(-c2ncn(CCCN3CCOCC3)c2-c2cccnc2)cc1	not met
CCc1ccnc(/C=C/c2n[nH]c3cc(Sc4ccccc4C(=O)NC)ccc23)c1	not met
COc1cc2ncn(-c3cc(OCc4sccc4Cl)c(C(N)=O)s3)c2cc1OC	not met

---

Test system: MYLK2
stated_conditions: concentration: 1 μM, replicates: in singlicate; n = 1
Assign Satisfied to entries whose %Inh meets or exceeds 8%; assign Not satisfied to the rest.

compound	test_system	discrete_label
COc1cc(Nc2nccc(N3CCC(NC(=O)c4cccc(NC(C)=O)c4)C3)n2)cc(OC)c1OC (stereo not shown)	MYLK2	Satisfied
COc1cc2c(cc1OCCN1CCN(C)CC1)ncc1c3ccc(C#N)cc3[nH]c21	MYLK2	Satisfied
c1ccc(-c2cc(-c3c[nH]nc3-c3ccccn3)ccn2)cc1	MYLK2	Not satisfied
CCn1cnc2c(N)ncnc21	MYLK2	Not satisfied
N#Cc1ccc(-c2cc(-c3c[nH]nc3-c3ccccn3)ccn2)cc1	MYLK2	Not satisfied
COc1ccc(Nc2nccc(N3CCC(NC(=O)Nc4cccc(C(C)=O)c4)C3)n2)cc1 (stereo not shown)	MYLK2	Not satisfied

---

System: MYLK
stated_conditions: concentration: 1 μM, replicates: in singlicate; n = 1

compound	test_system	readout_units	%Inh
[2H]C([2H])(c1cccc(C(F)(F)F)c1C)n1ccn2c(=O)nc(N3CCOCC3)cc12	MYLK	%	12
Cc1nnc(-c2ccc(C)c(-c3ccc(C(=O)Nc4ccc(NS(C)(=O)=O)cc4)cc3)c2)o1	MYLK	%	3
c1ccc(-c2cc(-c3c[nH]nc3-c3ccccn3)ccn2)cc1	MYLK	%	6
CCn1cnc2c(N)ncnc21	MYLK	%	29
Cc1nnc(-c2ccc3occ(-c4ccc(C(C)O)cc4)c3c2)o1 (centres unmarked)	MYLK	%	26
Cc1ccc(C(=O)NCC(N)=O)cc1-n1c(C)cc(OCc2ccc(F)cc2F)c(Br)c1=O	MYLK	%	7
COc1cc2ncn(-c3cc(OCc4sccc4Cl)c(C(N)=O)s3)c2cc1OC	MYLK	%	37
COc1ccc(S(=O)(=O)NC2CCN(c3cc(C)nc(Nc4cccc(C#N)c4)n3)CC2)cc1.O=C(O)C(F)(F)F	MYLK	%	3
Cc1cccc(-c2nc(-c3ccc(S(C)(=O)=O)cc3)sc2-c2ccncc2)c1	MYLK	%	6
Cc1ccc(NC(=O)c2ccnc(N3CCN(C)CC3)c2)cc1-c1ccc(C(=O)NCC2CC2)cc1	MYLK	%	0
Nc1nc(-c2ccc3c(N)n[nH]c3c2)cc(N2CCCC2)n1	MYLK	%	9
CCc1ccnc(/C=C/c2n[nH]c3cc(Sc4ccccc4C(=O)NC)ccc23)c1	MYLK	%	0
Cc1cn2c(=O)cc(N3CCOCC3)nc2n1Cc1cccc(Cl)c1Cl	MYLK	%	8
O=C1NC(=O)C(N2CCc3ccccc32)=C1c1cccc(Cl)c1	MYLK	%	8
Cl.Nc1ncnc2occ(-c3ccc(NC(=O)Nc4cc(C(F)(F)F)ccc4F)cc3)c12	MYLK	%	21
CC(=O)Nc1ccc(COc2ccc(Nc3ccnc4cc(-c5ccccn5)ccc34)cc2)cc1.Cl	MYLK	%	13
Cn1ccc2ncnc(Oc3ccc(NC(=O)Nc4ccncc4)c(Cl)c3)c21	MYLK	%	0
COc1ccc(CNC(=O)NC2CCN(c3ccnc(Nc4ccc(OC)cc4)n3)C2)cc1 (centres unmarked)	MYLK	%	22
CCc1nc(-c2cccc(C)c2)c(-c2ccnc(NCc3ccccc3)c2)s1	MYLK	%	0
COc1ccc(Nc2nccc(N3CCC(NC(=O)Nc4cc(C)ccc4C)C3)n2)cc1 (centres unmarked)	MYLK	%	0
Cc1c(Cn2c(C)nn3c(=O)cc(N4CCOC(C)C4)nc23)cccc1C(F)(F)F (centres unmarked)	MYLK	%	0
CN(C(=O)c1ccc(-c2cc(-c3c[nH]nc3-c3ccccn3)ccn2)cc1)C1CCOCC1	MYLK	%	0
Cc1cccc(Cn2ccn3c(=O)cc(N4CCOCC4)nc23)c1	MYLK	%	41
CCCCCc1nc2c(N)ncnc2n1CCCCC	MYLK	%	17
COC(=O)Nc1nc2cc(Oc3ccc(NC(=O)Nc4cc(F)ccc4F)cc3)ccc2[nH]1.Cl	MYLK	%	0
NS(=O)(=O)c1cccc(-c2ccc3ncc(N4CCOCC4)nc3c2)c1	MYLK	%	2
COc1ccc(Nc2nccc(N3CCC(NC(=O)Nc4cccc(C(C)=O)c4)C3)n2)cc1 (centres unmarked)	MYLK	%	0
O=C(Nc1cccc(-c2nn3ncccc3c2-c2ccnc(Nc3cccc(C(F)(F)F)c3)n2)c1)c1c(F)cccc1F	MYLK	%	11
O=C(NOCC1CC1)c1ccc(F)c(F)c1Nc1ccc(I)cc1Cl	MYLK	%	0
CNc1ncnc2[nH]ncc12	MYLK	%	0
NS(=O)(=O)CCc1cccc(Nc2nccc(-c3c(-c4cccc(NC(=O)c5c(F)cccc5F)c4)nn4ccccc34)n2)c1	MYLK	%	14
O=C(Nc1n[nH]c2cc(-c3cccc(F)c3)ccc12)C1CC1	MYLK	%	2
O=C1Cc2cc(Nc3nc(NCc4cccc(S(=O)(=O)C(F)(F)F)c4)ncc3C(F)(F)F)ccc2N1	MYLK	%	2
Fc1ccc(-c2nn3c(OCC(F)(F)F)cccc3c2-c2ccncc2)cc1	MYLK	%	15
CN1c2ccc(CNc3ccc(F)cc3)cc2-c2c(cnn2C)S1(=O)=O	MYLK	%	4

src = paper PMC5540273
